The entries below come with measured pKd values attached.
# assayedSystem: T1, SpPot1 (Schizosaccharomyces pombe, UniProt O13988 1-555)
# T1 sequence: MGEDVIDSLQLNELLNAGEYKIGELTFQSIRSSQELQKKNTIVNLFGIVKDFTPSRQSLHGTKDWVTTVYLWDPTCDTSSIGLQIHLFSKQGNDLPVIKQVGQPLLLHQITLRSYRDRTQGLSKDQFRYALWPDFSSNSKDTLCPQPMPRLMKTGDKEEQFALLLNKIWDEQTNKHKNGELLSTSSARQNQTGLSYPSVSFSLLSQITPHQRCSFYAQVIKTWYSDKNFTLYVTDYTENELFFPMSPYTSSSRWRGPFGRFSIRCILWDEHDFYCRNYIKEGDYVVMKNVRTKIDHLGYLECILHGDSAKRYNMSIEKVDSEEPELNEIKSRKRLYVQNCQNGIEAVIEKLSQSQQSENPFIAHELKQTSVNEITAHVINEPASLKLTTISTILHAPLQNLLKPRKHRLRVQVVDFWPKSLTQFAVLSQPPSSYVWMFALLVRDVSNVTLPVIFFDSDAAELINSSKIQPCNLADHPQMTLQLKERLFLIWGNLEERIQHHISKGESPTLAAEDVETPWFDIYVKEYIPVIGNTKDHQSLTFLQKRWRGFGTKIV
# experimentNotes: filter binding
Quick note: pKd values are minus log10 of concentrations in mol/L.

binder | pKd
GGTTACGGTTAC (mixed, ribonucleotides at 2 and 8) [r2r8] | 8.49
GGTTACAGGTTAC (mixed, ribonucleotide (rA) at 7) [d12rA] | 8.47
GGTTACGGTTAC (mixed, ribonucleotides at 1 and 7) [r1r7] | 8.29
GGTTACGGTTAC (mixed, ribonucleotides at 5 and 11) [r5r11] | 8.48
GGTTACGGTTAC (mixed, ribonucleotides at 6 and 12) [r6r12] | 8.49
GGTTACAGGGGTTAC (mixed, ribonucleotides (rArGrG) at 7-9) [d12rArGrG] | 8.40

// GGTTACAGGGGTTAC (ssDNA) [d12dAdGdG] : pKd value = 8.31
